What protein stability index was measured for each of the following?
System: Saccharomyces cerevisiae
Assay: protein stability index of tFT-peptide fusion (C-terminal peptide) (PSI (0-1 scale)); higher = more stable (slower turnover)
Details: genetic background: wild type; temperature: 30 C
Answers are plain numbers.

# annotated cases, reported protein stability index shown
- PRIMARY SEQUENCE: "DLGVCCLLGDFG"
  ASSAY RESULT: 0.577
- PRIMARY SEQUENCE: "RRRGREVCRCTE"
  ASSAY RESULT: 0.716
- PRIMARY SEQUENCE: "VCVFFRLCIVWY"
  ASSAY RESULT: 0.174
- PRIMARY SEQUENCE: "GFLGCGSGCGGG"
  ASSAY RESULT: 0.777
- PRIMARY SEQUENCE: "TAMNNGNSIHKL"
  ASSAY RESULT: 0.682

Each of the following entries comes with a recorded value; kindly state protein stability index for each.
1. PLPPPPTPPVPV
2. AVGGDGGAWVGP
3. KQTEKEPKKGES
4. PHQCLSFPPRFK

Data returned:
1: 0.672; 2: 0.723; 3: 0.712; 4: 0.744

Data request: Request: protein stability index, test system Saccharomyces cerevisiae, entry PRPTPPHSPLLP;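 further: PSI is a weighted mean of sequencing reads over stability bins, variants kept only with over 10 reads, mCherry proximal and sfGFP distal, peptide attached via GGGS linker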
Data returned: 0.586

Cited source for all entries: the supplement of paper PMC10724198
